All figures here come from patent US4552882A.

Give MIC for every item shown.
Quick reminder: number only, in µg/mL, skip the unit.

Param readout= MIC; system= Enterobacter aerogenes ATCC 15038; entry= CCn1cc(C(=O)O)c(=O)c2cnc(N3CCNCC3)nc21 [Pipemidic acid, reference compound] ; returns value.
32

Param readout= MIC; system= Enterobacter aerogenes ATCC 15038; entry= `CCn1cc(C(=O)O)c(=O)c2cc(F)c(-n3cccc3)nc21` ; returns value.
4

Param readout= MIC; system= Enterobacter aerogenes ATCC 15038; entry= `CCn1cc(C(=O)O)c(=O)c2cc(F)c(-n3cccc3)cc21` ; returns value.
8

---

test: in vivo; settings: mouse, ip
Property Measured: LD50 at 168 h

Recorded LD50 at 168 h for `CCn1cc(C(=O)O)c(=O)c2cc(F)c(-n3cccc3)nc21` , please?
> 1000 mg/kg

Recorded LD50 at 168 h for CCn1cc(C(=O)O)c(=O)c2ccc(C)nc21 [Nalidixic acid, reference compound] , please?
600 mg/kg

Recorded LD50 at 168 h for `CCn1cc(C(=O)O)c(=O)c2ccc(-n3cccc3)cc21` , please?
> 800 mg/kg

Recorded LD50 at 168 h for `CCn1cc(C(=O)O)c(=O)c2cc(F)c(-n3cccc3)cc21` , please?
> 1600 mg/kg

Recorded LD50 at 168 h for `CCn1cc(C(=O)O)c(=O)c2ccc(-n3cccc3)nc21` , please?
900 mg/kg
